# Protocol Text: soluble fraction after stress (log2 fold change); higher = more stays soluble; pooled small domains, quantitative proteomics
# Experimental Parameters: stress: pH 4
soluble fraction (log2) overview
Quantity: soluble fraction (log2)

> print(dat)
                                biosequence                 quantity  bound.type  assay.value
1  HMETIGENIKTYRQKKGYTQEEVANRLHVTRQTISKWEKNYSIPDAEVLVKLADVLEVQTSQLLGV  soluble fraction (log2)           ≥         0.43
2  HMEDNLMIVVQVNGKKRSEIKVSIDASEDQIKQTALAEPNVQKFVEGHTIRKMILVPSKLLNIVV  soluble fraction (log2)           ≥         0.43
3  HMAWAVRAGEGVLIRAGQPGFSATTRGTALSNGAIGEGVRVRNLGSGKEIQAWVVDKGEVETR  soluble fraction (log2)           =        0.136
4  HMNMAEETLDTAAKILKAAEEEFMEKGYGNAKMMSIAARAGVSHSMLHYYYRSKGKLFQMIFDEKA  soluble fraction (log2)           =        -1.06

* * *

# Protocol Text: soluble fraction after stress (log2 fold change); higher = more stays soluble; pooled small domains, quantitative proteomics
# Experimental Parameters: stress: pH 4
Think of -0.1 as a floor: if soluble fraction (log2) stands on it or above, it is TRUE; beneath it, FALSE.

> print(dat)
                                 biosequence  assigned.category
 1  HMIDRPLTLVEDYERFAGELAKITLRFMLDGRKRFNGRLAGFDEDGKIVLETSFGRFAFSFDEIDSARI              FALSE
 2  HMNKNNLRNVSSKIRKSRRVLNLSQAELSKKLDISPSYLNLIESGKRPITVPLLIKLGNILGISLKDL               TRUE
 3  HMTIGEALLNLRKQLGLNQTEMAANVVSTSFYSKVERNIHDIGTKDLLQILNKHQINATYFFENLN              FALSE
 4  HMDDTVILPIQINGKRRAEISVPKAMPASEVEKLALANEDVLRFLAGQPIKKLIVVPGRIINVV               TRUE
 5  HMEVTLTLKSFGTAKVAVIKAIQSITGLGLMDAKKLVDAAPSVIKEKISPSEAEQYKKTLVDAGAEVEI               TRUE
 6  HMGSDLVAWAQTRIGRHPEEAADVIAALIDRHGEARVRAASRSLLARKFAHASDLRTAIDAAIG               TRUE
 7  HMGQVEVPDVVGMTQERAITTLTEAKLVAQIQLTPADVAKGLVAAQSPRAGLKIGEGSFVTIEVSTGPVI               TRUE
 8  HMPRRSYLDARKKLLGMLNSPDFNSGDQIPAERELSEVLGISRVTVRKIITELIDEGVLERRGNQGTWLVD              FALSE
 9  HMDLPGIVTETDRQRADLAARIGAAKVEAVLAGGARSVEADEDFDADTRRELHQFLTRMARRAFLEER              FALSE
10  HMEISNWLEEIGLSRYTETLSEFPLEDLVEFTDDDFKELGVLTPHRKKLLAAIATLNNDASSN              FALSE
11  HMREITVEELYELEGIRIVGTIPGISAWVAESGRQMVFLVGQKVKGHDLLEVGESRVVLRKGDSVVNVLL              FALSE
12  HMPNDYRKKLEILAKEKGAEYLHTMLTEVDPKSALQIHTNNIKRTIRALEFYHQTGMKISEHNEAEREK               TRUE
13  HMEVFTPSEANVAEAREILAAMATAKANGEGATVYKGRLVDIASIKQAEVIVRQSEMIQSAH              FALSE
14  HMPDLQDTLYRLVPEDGSAIGNQSLREKFLSTAKDASDADFEAARDGLVEQGKLTKGKGRGGSVRRAEP               TRUE

* * *

soluble fraction (log2) overview
# Protocol Text: soluble fraction after stress (log2 fold change); higher = more stays soluble; pooled small domains, quantitative proteomics
# Experimental Parameters: stress: pH 4
Quantity: soluble fraction (log2)

> print(dat)
                                biosequence  assay.value
1  HMNFEIEVTENGKRIDSYLAEELDLSRSKVQKLIKQELVTVNGKVVSNNYNVKLGDTILVNDD        0.154
2  HMRESDQSTVELSLERTIQEALMVNPRTSSVEEFSFEWGTGRVKVSFIVYSVDGEPFTVDSIIE        -1.19
3  HMLNQIGVSQKEFDQIHTAIKIALKTSSLTPTGITEKLPKFPPEKTADILRWMADNKEVLLNSEEKYELKT       0.0247
4  HMRELPKRPEIRYAAGDRVFHKAFGNGLVKQVAQTAGGARVTVDFGEGKGVKTFAGDAPMIKI        0.326

* * *

soluble fraction (log2) overview
# Protocol Text: soluble fraction after stress (log2 fold change); higher = more stays soluble; pooled small domains, quantitative proteomics
# Experimental Parameters: stress: pH 4
Quantity: soluble fraction (log2)

> print(dat)
                                biosequence  assay.value
1  HMESSKLQASIINYLERRPTQKFTAEELFKGLSLEKASVFNELVKELTSLERSHKVEITADDKFKIARPQ       0.0446
2  HMRLDSELVSARLHRFMGTNRKPDGEIVEKIAAILEGHPIETLDAFLQSLNGRKIKSYGFFPTVLRREIAN       -0.114
3  HMEPQSRTAYRLIEAMIVTHELPPGSRISEASLSAKLGIGRTPIREALQRLSFEGTVKIVPRSGAFVSEI        0.183
4  HMRYWVKSETDFLIENRGKYSYQEFADMLGRSYAVVYDKMHQLKIDYTKEELEIFDEKHKAQMREKQQR       -0.665
5  HMENYQIETFVKFIEESTGEDGVAFEDLFQNFTSRPAVITMFLALLEALRRNSIRIFQKEEFSQILIYPK        -1.21
6  HMNDTLGVNIKRLRKEKGMTQDEVAKAVYTTRYNILRYESGKMTPSSEVIERLEKALGVPTGSLAQ      -0.0881
7  HMSLLLTPREASVWASEYLGKKVTSNNIIYLLNYGKIANHSTDLKENLIDKNELKIYYDSTIKSQKH      0.00309
8  HMAKMPSIIIMKDGVIRTSELEQIERDENWLNEEMKKQHIDNPEDVFLAEFWDGKVNFILQDGKIK        -0.78

* * *

# Protocol Text: soluble fraction after stress (log2 fold change); higher = more stays soluble; pooled small domains, quantitative proteomics
# Experimental Parameters: stress: pH 4
Categories are assigned from the measured soluble fraction (log2) using these intervals: low bracket (below -0.4), middle bracket (-0.4 to below 0.02), high bracket (0.02 or more)

> print(dat)
                                 biosequence  assigned.category
 1  HMDEKVTIPSVSGLLLSEAKTKLVDAGLTVETVYDDESKEAKDTVLSQSPLQYGKVDKGTVVTLTVSSGKG       high bracket
 2  HMPALPGNELLRNLMLEHGLKQVDLAEIGSQGVVSEILSGKRRINRRHADLLARRFSLPAELFSR     middle bracket
 3  HMDFSENEPVTVRVLSILKNNTIRIAVKGAVLQAQTALSQDIREGAFLLMRVHITDNTVVLTPY     middle bracket
 4  HMSEMDNMEWVREQYFQNMIYEIGEWVRDKKTGIVGEVVKRGTNYVTVVQEDFSLHKIWLEDLETTEK        low bracket
 5  HMNDPNAPITENQLKAIHVLLDKLKVDDNLKHAYIADVLQLDNEPETLKTLTKAQGSMAIERMQLLKDN        low bracket
 6  HMTTVKDRVYEILKREIVLGKLKPGEPINIAVLSTKLNISSAPLREALNMLSRDGLVTLNPRKHAAVSE     middle bracket
 7  HMRRSVYQANVLDAIKHLVDQNELATTKAIAEYIGDDYQGNVSRAIRELLADRKIKKLPKVGVLQPYEA       high bracket
 8  HMNIEANLEDILRRAMPSAAKLILENSLNINKIIGTGKEGRITKGDVLLYLKDKNLILENILN       high bracket
 9  HMLDLPEISARIMEVFETKDRATISELSKLTGTNINTIKKHLSSLVENNYLIKHGKTRGAWYTKST     middle bracket
10  HMGVDMGPAKYVGQKALTATEMRPAGKIQIGQTVFDAVSVGPFIGARKAVKVIKYENAQLYVEPE       high bracket
11  HMPKLVGEVMQTLDALRREKGLSLLLVEQNARAALGVVDRVYVLERGRVVFEGSAKEAMEDQDVMEFYLG     middle bracket
12  HMAILDTALDVLSMNLKDNYTSFQILRQAAIAGKIAFNLTEKNPLGGVIEVELTGDDLETWIEAATW        low bracket
13  HMNPHIQFWSLLRRQPDYNSAYKDELKAMFVWQWSGEKTESLNEFYKTDPYRYKSMLMDMRNRAL     middle bracket
14  HMTFGEMLQYTNRLKEILESNAPQSIKDRRLANLMTDLEQAYGIPILRDQEFEKENPFLMQLYRTIS        low bracket
15  HMSSVGELEVGNIFEGTVNSVRGGKVLLALGNGQMVLAQMDGRVNITPGSSMFFQVKSNDGETVAIRPYTG       high bracket
16  HMENTGFKDKKGNYIFDGDIVKDILGNIMKVEFKHFKWQLIPLNKTAFNMPMVDWLDLETETLNAEIIGN        low bracket
